B1: HDV Ribozyme (parent)
chain: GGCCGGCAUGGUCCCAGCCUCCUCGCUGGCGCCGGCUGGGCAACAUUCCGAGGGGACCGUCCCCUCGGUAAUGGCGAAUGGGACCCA

- Variants of: B1
- testDetails: self-cleavage, relative activity (ratio to wild type); higher = more cleavage; co-transcriptional
metricName: self-cleavage
Output: the number by itself.

Provide measured self-cleavage value, entry: C21U C86G
0.253

Provide measured self-cleavage value, entry: G5C U37G
0.111

Provide measured self-cleavage value, entry: C24G G74C
0.109

Provide measured self-cleavage value, entry: C18U A83C
0.227

Provide measured self-cleavage value, entry: A43C U72A
0.151
